system: SK-MEL-2 (melanoma); assay: MTS cell viability assay, SK-MEL-2; type: cell-based; details: Homo sapiens, SK-MEL-2, cells incubated 72 h
property: IC50

Here are 3 molecules together with their reported answers.
| molecule | IC50 |
| --- | --- |
| C=C(COC(C)=O)[C@@H]1CC[C@]2(C=O)CC[C@]3(C)[C@H](CC[C@@H]4[C@@]5(C)CCC(=O)C(C)(C)[C@@H]5CC[C@]43C)[C@@H]12 [Compound 18a] | > 45 µM |
| C=C(CO)[C@@H]1CC[C@]2(C=O)CC[C@]3(C)[C@H](CC[C@@H]4[C@@]5(C)CCC(=O)C(C)(C)[C@@H]5CC[C@]43C)[C@@H]12 [Compound 18b] | > 75 µM |
| C=C(COS(C)(=O)=O)[C@@H]1CC[C@]2(CO)CC[C@]3(C)[C@H](CC[C@@H]4[C@@]5(C)CCC(=O)C(C)(C)[C@@H]5CC[C@]43C)[C@@H]12 [Compound 21b] | > 75 µM |

Request: Look up IC50 with SK-MEL-2 (melanoma) for this molecule: `C=C(C(=O)O)[C@@H]1CC[C@]2(C(=O)O)CC[C@]3(C)[C@H](CC[C@@H]4[C@@]5(C)CCC(=O)C(C)(C)[C@@H]5CC[C@]43C)[C@@H]12`
Result: > 75 µM

Data provenance: patent US20090062243A1
